- system.tested: BDNF/NT-3 growth factors receptor (Homo sapiens, UniProt Q16620)
- Sequence (Q16620 whole entry): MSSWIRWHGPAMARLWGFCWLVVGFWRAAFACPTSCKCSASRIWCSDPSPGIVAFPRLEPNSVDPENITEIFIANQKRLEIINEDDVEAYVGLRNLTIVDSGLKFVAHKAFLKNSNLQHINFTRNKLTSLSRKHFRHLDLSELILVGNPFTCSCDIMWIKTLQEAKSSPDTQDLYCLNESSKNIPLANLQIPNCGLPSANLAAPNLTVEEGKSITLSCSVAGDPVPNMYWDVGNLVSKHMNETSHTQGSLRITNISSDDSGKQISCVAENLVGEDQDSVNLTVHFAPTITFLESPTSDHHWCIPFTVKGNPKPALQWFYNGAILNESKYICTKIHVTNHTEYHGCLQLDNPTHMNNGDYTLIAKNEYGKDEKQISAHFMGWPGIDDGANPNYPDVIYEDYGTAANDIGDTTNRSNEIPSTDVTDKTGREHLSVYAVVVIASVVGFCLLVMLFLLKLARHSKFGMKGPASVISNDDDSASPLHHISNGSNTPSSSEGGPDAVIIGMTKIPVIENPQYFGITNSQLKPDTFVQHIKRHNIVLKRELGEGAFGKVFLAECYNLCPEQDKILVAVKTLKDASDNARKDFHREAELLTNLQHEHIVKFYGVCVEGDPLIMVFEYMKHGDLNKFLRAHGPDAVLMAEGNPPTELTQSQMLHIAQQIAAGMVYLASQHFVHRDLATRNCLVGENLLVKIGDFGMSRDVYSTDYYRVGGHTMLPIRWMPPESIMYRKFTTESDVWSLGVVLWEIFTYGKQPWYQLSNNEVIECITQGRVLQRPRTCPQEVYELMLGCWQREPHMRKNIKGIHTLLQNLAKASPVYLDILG
- method.description: Inhibition of TrkB (unknown origin)
measured.property: IC50 (nM)
The reply should be a number in nM, with the unit left off.

Input line: Could you tell me which IC50 is on file for CN(C)S(=O)(=O)c1ccc2c(c1)/C(=C/c1cn(C)c3ccc(O)cc13)C(=O)N2 ?
Output line: 13.5

Input line: Could you tell me which IC50 is on file for COc1ccc2c(c1)c(/C=C1\C(=O)Nc3ccc(S(=O)(=O)N(C)C)cc31)cn2C ?
Output line: 15.2

Input line: Could you tell me which IC50 is on file for Cn1cc(/C=C2\C(=O)Nc3ccc(S(N)(=O)=O)cc32)c2ccccc21 ?
Output line: 7.62

Input line: Could you tell me which IC50 is on file for COc1ccc2[nH]cc(/C=C3\C(=O)Nc4ccc(S(N)(=O)=O)cc43)c2c1 ?
Output line: 8.53

###

- system.tested: Mitogen-activated protein kinase kinase kinase 11 (Homo sapiens) (UniProt Q16584)
- Sequence (Q16584 whole entry, looked up): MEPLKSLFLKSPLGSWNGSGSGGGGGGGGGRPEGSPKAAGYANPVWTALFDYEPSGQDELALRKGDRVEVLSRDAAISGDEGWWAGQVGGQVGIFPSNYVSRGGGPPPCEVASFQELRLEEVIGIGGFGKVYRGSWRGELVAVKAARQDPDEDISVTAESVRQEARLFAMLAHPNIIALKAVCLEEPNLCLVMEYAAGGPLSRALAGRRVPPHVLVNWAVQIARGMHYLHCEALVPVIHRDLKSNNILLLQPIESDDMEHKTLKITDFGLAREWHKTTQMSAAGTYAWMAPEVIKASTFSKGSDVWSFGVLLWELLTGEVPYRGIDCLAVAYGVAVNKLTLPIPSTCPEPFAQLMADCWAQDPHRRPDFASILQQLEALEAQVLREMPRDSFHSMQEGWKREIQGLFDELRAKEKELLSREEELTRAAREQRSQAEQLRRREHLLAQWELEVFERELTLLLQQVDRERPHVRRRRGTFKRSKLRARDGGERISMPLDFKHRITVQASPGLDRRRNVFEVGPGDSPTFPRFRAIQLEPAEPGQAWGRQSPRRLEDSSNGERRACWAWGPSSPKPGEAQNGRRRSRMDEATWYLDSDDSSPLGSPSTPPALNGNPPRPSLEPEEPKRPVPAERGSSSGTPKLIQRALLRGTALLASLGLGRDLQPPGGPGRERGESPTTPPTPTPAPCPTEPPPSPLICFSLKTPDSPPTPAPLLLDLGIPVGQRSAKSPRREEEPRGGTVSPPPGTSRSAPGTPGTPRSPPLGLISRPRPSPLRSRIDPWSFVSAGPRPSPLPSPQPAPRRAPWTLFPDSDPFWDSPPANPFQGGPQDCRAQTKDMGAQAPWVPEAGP
- method.description: Inhibition of human MAP3K11 assessed as residual activity at 0.1 uM relative to control
measured.property: Activity (%)
The reply should be a number in %, with the unit left off.

Input line: Look up Activity with Mitogen-activated protein kinase kinase kinase 11 (Homo sapiens) (UniProt Q16584) for this molecule: CNS(=O)(=O)c1ccc2c(c1)/C(=C/c1cn(C)c3ccc(OC)cc13)C(=O)N2
Output line: 76

Input line: Look up Activity with Mitogen-activated protein kinase kinase kinase 11 (Homo sapiens) (UniProt Q16584) for this molecule: COc1ccc2c(c1)c(/C=C1\C(=O)Nc3ccc(S(=O)(=O)N(C)C)cc31)cn2C
Output line: 84

Input line: Look up Activity with Mitogen-activated protein kinase kinase kinase 11 (Homo sapiens) (UniProt Q16584) for this molecule: COc1ccc2[nH]cc(/C=C3\C(=O)Nc4ccc(S(N)(=O)=O)cc43)c2c1
Output line: 66

Input line: Look up Activity with Mitogen-activated protein kinase kinase kinase 11 (Homo sapiens) (UniProt Q16584) for this molecule: Cn1cc(/C=C2\C(=O)Nc3ccc(S(N)(=O)=O)cc32)c2ccccc21
Output line: 36

Input line: Look up Activity with Mitogen-activated protein kinase kinase kinase 11 (Homo sapiens) (UniProt Q16584) for this molecule: CN(C)S(=O)(=O)c1ccc2c(c1)/C(=C/c1cn(C)c3ccc(O)cc13)C(=O)N2
Output line: 80

Input line: Look up Activity with Mitogen-activated protein kinase kinase kinase 11 (Homo sapiens) (UniProt Q16584) for this molecule: COc1ccc2c(c1)c(/C=C1\C(=O)Nc3ccc(S(N)(=O)=O)cc31)cn2C
Output line: 34

###

- system.tested: Serine/threonine-protein kinase N2 (Homo sapiens)
- method.description: Inhibition of human PRK2 assessed as residual activity at 1 uM relative to control
measured.property: Activity (%)
The reply should be a number in %, with the unit left off.

Input line: Look up Activity with Serine/threonine-protein kinase N2 (Homo sapiens) for this molecule: COc1ccc2c(c1)c(/C=C1\C(=O)Nc3ccc(S(N)(=O)=O)cc31)cn2C
Output line: 89

Input line: Look up Activity with Serine/threonine-protein kinase N2 (Homo sapiens) for this molecule: COc1ccc2c(c1)c(/C=C1\C(=O)Nc3ccc(S(=O)(=O)N(C)C)cc31)cn2C
Output line: 94

Input line: Look up Activity with Serine/threonine-protein kinase N2 (Homo sapiens) for this molecule: CN(C)S(=O)(=O)c1ccc2c(c1)/C(=C/c1cn(C)c3ccc(O)cc13)C(=O)N2
Output line: 89

Input line: Look up Activity with Serine/threonine-protein kinase N2 (Homo sapiens) for this molecule: COc1ccc2[nH]cc(/C=C3\C(=O)Nc4ccc(S(N)(=O)=O)cc43)c2c1
Output line: 81

Input line: Look up Activity with Serine/threonine-protein kinase N2 (Homo sapiens) for this molecule: Cn1cc(/C=C2\C(=O)Nc3ccc(S(N)(=O)=O)cc32)c2ccccc21
Output line: 78

Input line: Look up Activity with Serine/threonine-protein kinase N2 (Homo sapiens) for this molecule: CNS(=O)(=O)c1ccc2c(c1)/C(=C/c1cn(C)c3ccc(OC)cc13)C(=O)N2
Output line: 86

###

- system.tested: Receptor tyrosine-protein kinase erbB-4 (Homo sapiens) (UniProt Q15303)
- Sequence (Q15303 whole entry): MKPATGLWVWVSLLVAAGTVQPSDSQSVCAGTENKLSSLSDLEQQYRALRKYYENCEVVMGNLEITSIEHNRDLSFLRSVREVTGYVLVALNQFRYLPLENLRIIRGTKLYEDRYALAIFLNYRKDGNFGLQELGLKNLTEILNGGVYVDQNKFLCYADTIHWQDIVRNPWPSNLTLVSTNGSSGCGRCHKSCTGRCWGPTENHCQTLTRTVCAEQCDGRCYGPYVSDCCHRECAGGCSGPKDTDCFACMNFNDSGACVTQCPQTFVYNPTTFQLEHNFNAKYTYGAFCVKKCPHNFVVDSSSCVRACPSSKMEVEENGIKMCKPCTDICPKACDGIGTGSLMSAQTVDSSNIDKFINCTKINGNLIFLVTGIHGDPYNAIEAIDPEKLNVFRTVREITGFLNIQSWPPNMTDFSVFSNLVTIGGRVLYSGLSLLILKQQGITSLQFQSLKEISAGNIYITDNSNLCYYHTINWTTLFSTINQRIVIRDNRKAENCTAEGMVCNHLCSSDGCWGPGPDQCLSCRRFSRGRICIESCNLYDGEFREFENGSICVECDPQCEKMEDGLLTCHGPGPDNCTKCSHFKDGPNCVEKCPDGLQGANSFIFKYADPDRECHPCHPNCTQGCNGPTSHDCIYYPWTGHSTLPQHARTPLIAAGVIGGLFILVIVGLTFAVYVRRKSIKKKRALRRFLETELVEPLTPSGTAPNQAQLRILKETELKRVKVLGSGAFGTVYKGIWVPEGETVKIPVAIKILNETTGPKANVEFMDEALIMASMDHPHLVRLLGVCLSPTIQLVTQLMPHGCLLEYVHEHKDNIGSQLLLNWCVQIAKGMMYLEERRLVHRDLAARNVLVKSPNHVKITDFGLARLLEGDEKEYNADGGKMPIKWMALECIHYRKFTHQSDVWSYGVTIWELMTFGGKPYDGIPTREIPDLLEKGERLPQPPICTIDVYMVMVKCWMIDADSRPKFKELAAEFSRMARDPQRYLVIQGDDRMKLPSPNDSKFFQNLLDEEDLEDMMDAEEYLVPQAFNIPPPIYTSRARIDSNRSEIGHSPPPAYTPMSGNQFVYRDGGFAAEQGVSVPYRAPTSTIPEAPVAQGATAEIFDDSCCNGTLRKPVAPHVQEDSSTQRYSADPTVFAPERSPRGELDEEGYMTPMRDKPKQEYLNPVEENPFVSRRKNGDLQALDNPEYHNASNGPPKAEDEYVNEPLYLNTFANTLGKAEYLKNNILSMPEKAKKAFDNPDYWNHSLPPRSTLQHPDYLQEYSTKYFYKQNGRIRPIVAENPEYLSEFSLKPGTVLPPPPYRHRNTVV
- method.description: Inhibition of human ERBB4 assessed as residual activity at 0.1 uM relative to control
measured.property: Activity (%)
The reply should be a number in %, with the unit left off.

Input line: Could you tell me which Activity is on file for CNS(=O)(=O)c1ccc2c(c1)/C(=C/c1cn(C)c3ccc(OC)cc13)C(=O)N2 ?
Output line: 98

Input line: Could you tell me which Activity is on file for Cn1cc(/C=C2\C(=O)Nc3ccc(S(N)(=O)=O)cc32)c2ccccc21 ?
Output line: 94

Input line: Could you tell me which Activity is on file for COc1ccc2c(c1)c(/C=C1\C(=O)Nc3ccc(S(=O)(=O)N(C)C)cc31)cn2C ?
Output line: 103

Input line: Could you tell me which Activity is on file for COc1ccc2[nH]cc(/C=C3\C(=O)Nc4ccc(S(N)(=O)=O)cc43)c2c1 ?
Output line: 94

Input line: Could you tell me which Activity is on file for COc1ccc2c(c1)c(/C=C1\C(=O)Nc3ccc(S(N)(=O)=O)cc31)cn2C ?
Output line: 101

Input line: Could you tell me which Activity is on file for CN(C)S(=O)(=O)c1ccc2c(c1)/C(=C/c1cn(C)c3ccc(O)cc13)C(=O)N2 ?
Output line: 110

###

- system.tested: SRSF protein kinase 1 (Homo sapiens)
- method.description: Inhibition of human SRPK1 assessed as residual activity at 0.1 uM relative to control
measured.property: Activity (%)
The reply should be a number in %, with the unit left off.

Input line: Look up Activity with SRSF protein kinase 1 (Homo sapiens) for this molecule: CN(C)S(=O)(=O)c1ccc2c(c1)/C(=C/c1cn(C)c3ccc(O)cc13)C(=O)N2
Output line: 109

Input line: Look up Activity with SRSF protein kinase 1 (Homo sapiens) for this molecule: COc1ccc2c(c1)c(/C=C1\C(=O)Nc3ccc(S(N)(=O)=O)cc31)cn2C
Output line: 106

Input line: Look up Activity with SRSF protein kinase 1 (Homo sapiens) for this molecule: CNS(=O)(=O)c1ccc2c(c1)/C(=C/c1cn(C)c3ccc(OC)cc13)C(=O)N2
Output line: 105

Input line: Look up Activity with SRSF protein kinase 1 (Homo sapiens) for this molecule: COc1ccc2[nH]cc(/C=C3\C(=O)Nc4ccc(S(N)(=O)=O)cc43)c2c1
Output line: 114

Input line: Look up Activity with SRSF protein kinase 1 (Homo sapiens) for this molecule: Cn1cc(/C=C2\C(=O)Nc3ccc(S(N)(=O)=O)cc32)c2ccccc21
Output line: 116

Input line: Look up Activity with SRSF protein kinase 1 (Homo sapiens) for this molecule: COc1ccc2c(c1)c(/C=C1\C(=O)Nc3ccc(S(=O)(=O)N(C)C)cc31)cn2C
Output line: 111

###

- system.tested: High affinity nerve growth factor receptor (Homo sapiens, UniProt P04629)
- Sequence (P04629 whole entry, the tested form may be a part): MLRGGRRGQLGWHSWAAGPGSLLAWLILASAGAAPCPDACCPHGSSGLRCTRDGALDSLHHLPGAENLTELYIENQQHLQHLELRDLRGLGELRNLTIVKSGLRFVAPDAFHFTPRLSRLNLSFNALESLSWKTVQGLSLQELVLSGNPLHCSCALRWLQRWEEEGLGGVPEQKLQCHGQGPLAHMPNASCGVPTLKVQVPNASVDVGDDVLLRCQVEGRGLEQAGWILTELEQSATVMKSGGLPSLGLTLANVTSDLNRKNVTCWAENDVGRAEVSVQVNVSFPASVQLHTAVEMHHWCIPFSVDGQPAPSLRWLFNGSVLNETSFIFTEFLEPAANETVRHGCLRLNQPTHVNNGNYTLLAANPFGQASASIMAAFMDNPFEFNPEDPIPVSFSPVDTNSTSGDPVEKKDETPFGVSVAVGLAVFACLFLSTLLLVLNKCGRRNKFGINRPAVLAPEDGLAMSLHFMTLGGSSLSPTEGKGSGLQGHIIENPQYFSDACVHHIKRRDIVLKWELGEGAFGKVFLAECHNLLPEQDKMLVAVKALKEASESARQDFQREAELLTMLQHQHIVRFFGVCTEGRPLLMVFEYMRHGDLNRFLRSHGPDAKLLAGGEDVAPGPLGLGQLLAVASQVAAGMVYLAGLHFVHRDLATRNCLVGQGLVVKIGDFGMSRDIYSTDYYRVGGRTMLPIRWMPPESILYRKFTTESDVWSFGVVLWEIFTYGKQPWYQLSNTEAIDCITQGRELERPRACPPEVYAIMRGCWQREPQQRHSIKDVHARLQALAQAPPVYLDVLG
- method.description: Inhibition of GST-fused TrkA (unknown origin) expressed in SF9 cells using H2N-RRRAAAEEIYGEINH2 peptide as substrate preincubated with ATP and Mg and measured by microtiter plate reader analysis
measured.property: pIC50
Scale explanation: pIC50 corresponds to minus log10 of a concentration expressed in moles per litre.

Input line: Could you tell me which pIC50 is on file for NS(=O)(=O)c1ccc(N/C=C2\C(=O)Nc3ccccc32)cc1 ?
Output line: 7.20

###

- system.tested: Serine/threonine-protein kinase TBK1 (Homo sapiens) (UniProt Q9UHD2)
- Sequence (Q9UHD2 whole entry): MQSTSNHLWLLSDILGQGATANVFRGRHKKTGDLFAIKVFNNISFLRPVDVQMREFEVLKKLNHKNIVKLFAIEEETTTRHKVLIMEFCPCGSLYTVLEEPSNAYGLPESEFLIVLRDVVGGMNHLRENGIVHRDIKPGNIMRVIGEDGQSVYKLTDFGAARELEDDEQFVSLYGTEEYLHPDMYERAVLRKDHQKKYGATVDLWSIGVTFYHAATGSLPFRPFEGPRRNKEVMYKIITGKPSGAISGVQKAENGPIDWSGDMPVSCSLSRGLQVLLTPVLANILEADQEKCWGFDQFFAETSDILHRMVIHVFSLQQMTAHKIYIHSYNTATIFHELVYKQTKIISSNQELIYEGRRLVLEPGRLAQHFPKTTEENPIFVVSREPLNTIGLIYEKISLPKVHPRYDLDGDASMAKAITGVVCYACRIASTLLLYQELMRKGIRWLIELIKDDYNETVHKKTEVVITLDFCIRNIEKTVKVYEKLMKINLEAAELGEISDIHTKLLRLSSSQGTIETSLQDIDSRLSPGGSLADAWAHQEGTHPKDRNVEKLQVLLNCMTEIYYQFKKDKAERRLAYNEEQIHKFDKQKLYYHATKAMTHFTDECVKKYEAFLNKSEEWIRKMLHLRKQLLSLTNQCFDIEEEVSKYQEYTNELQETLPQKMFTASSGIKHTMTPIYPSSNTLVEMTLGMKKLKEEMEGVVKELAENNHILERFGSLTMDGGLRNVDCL
- method.description: Inhibition of human TBK1 assessed as residual activity at 0.1 uM relative to control
measured.property: Activity (%)
The reply should be a number in %, with the unit left off.

Input line: Look up Activity with Serine/threonine-protein kinase TBK1 (Homo sapiens) (UniProt Q9UHD2) for this compound: COc1ccc2c(c1)c(/C=C1\C(=O)Nc3ccc(S(=O)(=O)N(C)C)cc31)cn2C
Output line: 100

Input line: Look up Activity with Serine/threonine-protein kinase TBK1 (Homo sapiens) (UniProt Q9UHD2) for this compound: CNS(=O)(=O)c1ccc2c(c1)/C(=C/c1cn(C)c3ccc(OC)cc13)C(=O)N2
Output line: 97

Input line: Look up Activity with Serine/threonine-protein kinase TBK1 (Homo sapiens) (UniProt Q9UHD2) for this compound: CN(C)S(=O)(=O)c1ccc2c(c1)/C(=C/c1cn(C)c3ccc(O)cc13)C(=O)N2
Output line: 96

Input line: Look up Activity with Serine/threonine-protein kinase TBK1 (Homo sapiens) (UniProt Q9UHD2) for this compound: COc1ccc2c(c1)c(/C=C1\C(=O)Nc3ccc(S(N)(=O)=O)cc31)cn2C
Output line: 79

Input line: Look up Activity with Serine/threonine-protein kinase TBK1 (Homo sapiens) (UniProt Q9UHD2) for this compound: Cn1cc(/C=C2\C(=O)Nc3ccc(S(N)(=O)=O)cc32)c2ccccc21
Output line: 75

Input line: Look up Activity with Serine/threonine-protein kinase TBK1 (Homo sapiens) (UniProt Q9UHD2) for this compound: COc1ccc2[nH]cc(/C=C3\C(=O)Nc4ccc(S(N)(=O)=O)cc43)c2c1
Output line: 96
